Numbers sourced from ChEMBL document CHEMBL1795332.

# target-entity: CYP3A4 (Homo sapiens)
# Sequence (P08684 whole entry): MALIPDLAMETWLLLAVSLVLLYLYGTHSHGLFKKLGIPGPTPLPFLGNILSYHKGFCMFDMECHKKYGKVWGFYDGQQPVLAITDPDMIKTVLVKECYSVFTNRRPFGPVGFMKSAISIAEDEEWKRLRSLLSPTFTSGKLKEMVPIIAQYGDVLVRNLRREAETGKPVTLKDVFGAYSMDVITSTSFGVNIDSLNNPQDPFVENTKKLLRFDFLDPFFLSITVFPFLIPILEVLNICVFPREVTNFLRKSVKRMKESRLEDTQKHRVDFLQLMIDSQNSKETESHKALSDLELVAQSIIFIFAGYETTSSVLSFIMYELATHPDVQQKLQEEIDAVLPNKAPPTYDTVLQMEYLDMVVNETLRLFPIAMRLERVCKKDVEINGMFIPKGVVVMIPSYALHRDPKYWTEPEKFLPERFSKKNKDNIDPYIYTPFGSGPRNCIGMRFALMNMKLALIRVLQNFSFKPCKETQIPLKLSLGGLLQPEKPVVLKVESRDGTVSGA
# assay: Time dependent inhibition of CYP3A4 assessed as conversion of testosterone to 6-beta-hydroxytestosterone at 10 uM relative to control
# Type: ADME
# run-conditions: probe testosterone
Quick list: inhibition at 10 µM per entry.
readout-type: inhibition at 10 µM (%)

smiles_entry=COCCCc1cc(CN(C(=O)[C@H]2CNCC[C@@H]2c2cc(=O)n(C)c(C)c2C)C2CC2)cc(OCCOC)c1 readout_type="inhibition at 10 µM" observed_value=0
smiles_entry=COCCCc1ccc(Cl)c(CN(C(=O)[C@H]2CNCC[C@@H]2c2ccn(C)c(=O)c2)C2CC2)c1 readout_type="inhibition at 10 µM" observed_value=29
smiles_entry=COCCNc1cc(Cl)c(Cl)c(CN(C(=O)[C@H]2CNCC[C@@H]2c2ccn(C)c(=O)c2)C2CC2)c1 readout_type="inhibition at 10 µM" observed_value=0
smiles_entry=COCCCc1cc(CN(C(=O)[C@H]2CNCC[C@@H]2c2ccn(C)c(=O)c2)C2CC2)c2ccccc2c1 readout_type="inhibition at 10 µM" observed_value=34
smiles_entry=COCCCn1cc(CN(C(=O)[C@H]2CNCC[C@@H]2c2ccn(C)c(=O)c2)C2CC2)c2ccccc21 readout_type="inhibition at 10 µM" observed_value=45
smiles_entry=COCCCc1cc(C)c(C)c(CN(C(=O)[C@H]2CNCC[C@@H]2c2ccn(C)c(=O)c2)C2CC2)c1 readout_type="inhibition at 10 µM" observed_value=15
smiles_entry=Cn1ccc([C@H]2CCNC[C@@H]2C(=O)N(Cc2c[nH]c3cccc(F)c23)C2CC2)cc1=O readout_type="inhibition at 10 µM" observed_value=0
smiles_entry=Cn1ccc([C@H]2CCNC[C@@H]2C(=O)N(Cc2cccc(Cl)c2Cl)C2CC2)cc1=O readout_type="inhibition at 10 µM" observed_value=37

----------
Record: log10(Ki) reported on Voltage-gated inwardly rectifying potassium channel KCNH2 (Homo sapiens).
Sequence (Q12809 whole entry): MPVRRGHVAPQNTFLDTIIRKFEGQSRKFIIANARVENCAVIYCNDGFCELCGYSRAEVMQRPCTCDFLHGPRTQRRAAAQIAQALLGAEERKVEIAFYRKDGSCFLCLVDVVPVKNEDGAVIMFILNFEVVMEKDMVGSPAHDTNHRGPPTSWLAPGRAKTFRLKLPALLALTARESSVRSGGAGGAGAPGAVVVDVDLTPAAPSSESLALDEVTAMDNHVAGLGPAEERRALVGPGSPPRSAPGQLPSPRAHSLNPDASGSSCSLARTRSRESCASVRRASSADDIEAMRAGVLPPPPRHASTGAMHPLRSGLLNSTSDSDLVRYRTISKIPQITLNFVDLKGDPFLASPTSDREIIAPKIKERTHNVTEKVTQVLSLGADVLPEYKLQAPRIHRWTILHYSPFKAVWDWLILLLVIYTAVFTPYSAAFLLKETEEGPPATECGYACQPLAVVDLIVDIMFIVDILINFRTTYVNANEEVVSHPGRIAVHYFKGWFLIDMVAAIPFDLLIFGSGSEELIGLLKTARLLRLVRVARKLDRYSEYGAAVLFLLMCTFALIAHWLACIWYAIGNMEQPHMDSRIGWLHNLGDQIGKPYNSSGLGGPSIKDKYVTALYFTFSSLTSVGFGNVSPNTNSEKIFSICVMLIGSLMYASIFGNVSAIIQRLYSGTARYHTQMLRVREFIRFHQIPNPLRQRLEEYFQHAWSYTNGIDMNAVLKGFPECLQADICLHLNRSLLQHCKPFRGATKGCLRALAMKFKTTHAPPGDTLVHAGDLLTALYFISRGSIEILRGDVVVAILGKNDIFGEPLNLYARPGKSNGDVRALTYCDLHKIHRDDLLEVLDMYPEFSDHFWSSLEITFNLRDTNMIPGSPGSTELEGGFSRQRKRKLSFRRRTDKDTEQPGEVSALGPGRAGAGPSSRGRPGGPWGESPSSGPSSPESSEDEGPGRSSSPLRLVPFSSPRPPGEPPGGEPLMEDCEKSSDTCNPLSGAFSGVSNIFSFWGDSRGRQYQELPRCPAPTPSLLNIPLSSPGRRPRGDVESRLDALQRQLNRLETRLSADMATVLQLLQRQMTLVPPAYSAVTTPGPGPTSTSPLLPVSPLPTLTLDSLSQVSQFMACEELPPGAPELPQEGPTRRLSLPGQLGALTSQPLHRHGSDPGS
readout-type: log10(Ki) (log10 of the value in µM)

smiles_entry=Cn1ccc([C@H]2CCNC[C@@H]2C(=O)N(Cc2cc(CCCC#N)cc(Cl)c2Cl)C2CC2)cc1=O observed_value=0.92
smiles_entry=COCCCc1cc(Cl)cc(CN(C(=O)[C@H]2CNCC[C@@H]2c2ccn(C)c(=O)c2)C2CC2)c1 observed_value=0.88
smiles_entry=Cn1ccc([C@H]2CCNC[C@@H]2C(=O)N(Cc2cccc(Cl)c2Cl)C2CC2)cc1=O observed_value=1.11
smiles_entry=COCCc1cc(Cl)c(Cl)c(CN(C(=O)[C@H]2CNCC[C@@H]2c2ccn(C)c(=O)c2)C2CC2)c1 observed_value=1.04
smiles_entry=COCCCc1cc(CN(C(=O)[C@H]2CNCC[C@@H]2c2ccccc2)C2CC2)cc(OCCOC)c1 observed_value=0.86
smiles_entry=COCCCn1cc(CN(C(=O)[C@H]2CNCC[C@@H]2c2ccn(C)c(=O)c2)C2CC2)c2c(Cl)cccc21 observed_value=1.36
smiles_entry=COC(=O)NCCc1cc(Cl)c(Cl)c(CN(C(=O)[C@H]2CNCC[C@@H]2c2ccn(C)c(=O)c2)C2CC2)c1 observed_value=1.18
smiles_entry=COCCCc1cc(CN(C(=O)[C@H]2CNCC[C@@H]2c2ccn(C)c(=O)c2)C2CC2)cc(Br)c1C observed_value=1.26
smiles_entry=COCCCc1cc(CN(C(=O)[C@H]2CNCC[C@@H]2c2ccc(OCCOc3c(Cl)cc(C)cc3Cl)cc2)C2CC2)cc(OCCOC)c1 observed_value=-0.10
smiles_entry=Cn1ccc([C@H]2CCNC[C@@H]2C(=O)N(Cc2cn(Cc3cccc(F)c3)c3cccc(F)c23)C2CC2)cc1=O observed_value=0.08
smiles_entry=Cn1ccc([C@H]2CCNC[C@@H]2C(=O)N(Cc2cc(CCC#N)cc(Cl)c2Cl)C2CC2)cc1=O observed_value=1.23
smiles_entry=COCCCc1cc(CN(C(=O)[C@H]2CNCC[C@@H]2c2cc(=O)n(C)c3ccccc23)C2CC2)cc(OCCOC)c1 observed_value=1.45
smiles_entry=Cn1ccc([C@H]2CCNC[C@@H]2C(=O)N(Cc2cn(Cc3ccncc3)c3cccc(F)c23)C2CC2)cc1=O observed_value=1.18
smiles_entry=COCCCc1cc(Cl)c(Cl)c(CN(C(=O)[C@H]2CNCC[C@@H]2c2ccn(C)c(=O)c2)C2CC2)c1 observed_value=0.68
smiles_entry=COCCCc1cc(CN(C(=O)[C@H]2CNCC[C@@H]2c2ccn(C)c(=O)c2)C2CC2)c2ncccc2c1 observed_value=1.43
smiles_entry=Cn1ccc([C@H]2CCNC[C@@H]2C(=O)N(Cc2cn(Cc3cccnc3)c3cccc(F)c23)C2CC2)cc1=O observed_value=1.08
smiles_entry=Cn1ccc([C@H]2CCNC[C@@H]2C(=O)N(Cc2cn(Cc3ccc(F)cc3)c3cccc(F)c23)C2CC2)cc1=O observed_value=-0.12
smiles_entry=COCCCc1cc(CN(C(=O)[C@H]2CNCC[C@@H]2c2ccn(C)c(=O)c2)C2CC2)c2ccccc2c1 observed_value=1.23
smiles_entry=COCCCn1cc(CN(C(=O)[C@H]2CNCC[C@@H]2c2ccn(C)c(=O)c2)C2CC2)c2c(Br)cccc21 observed_value=1.04
smiles_entry=COCCNc1cc(Cl)c(Cl)c(CN(C(=O)[C@H]2CNCC[C@@H]2c2ccn(C)c(=O)c2)C2CC2)c1 observed_value=1.26

----------
Documented pIC50 across a set of compounds
# target-entity: Renin (Homo sapiens, UniProt P00797)
# Sequence (P00797 whole entry): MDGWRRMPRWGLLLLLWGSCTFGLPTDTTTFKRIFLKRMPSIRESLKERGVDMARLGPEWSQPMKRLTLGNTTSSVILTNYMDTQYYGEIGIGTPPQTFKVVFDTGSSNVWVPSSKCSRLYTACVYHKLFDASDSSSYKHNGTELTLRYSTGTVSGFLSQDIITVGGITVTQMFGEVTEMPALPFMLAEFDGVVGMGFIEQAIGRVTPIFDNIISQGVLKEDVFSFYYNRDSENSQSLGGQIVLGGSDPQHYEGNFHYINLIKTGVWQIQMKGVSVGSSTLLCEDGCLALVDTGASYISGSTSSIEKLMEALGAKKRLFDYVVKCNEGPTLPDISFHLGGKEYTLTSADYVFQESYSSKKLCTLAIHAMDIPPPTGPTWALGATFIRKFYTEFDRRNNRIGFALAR
# assay: Inhibition of renin in human plasma using Q-FRET substrate pretreated for 10 mins before substrate addition measured after 1 hr
pIC50: −log10 of the molar value.
readout-type: pIC50

smiles_entry=Cn1ccc([C@H]2CCNC[C@@H]2C(=O)N(Cc2cn(Cc3cccnc3)c3cccc(F)c23)C2CC2)cc1=O observed_value=8.70
smiles_entry=COCCCc1cc(Br)cc(CN(C(=O)[C@H]2CNCC[C@@H]2c2ccn(C)c(=O)c2)C2CC2)c1 observed_value=8.46
smiles_entry=Cn1ccc([C@H]2CCNC[C@@H]2C(=O)N(Cc2cn(Cc3ccncc3)c3cccc(F)c23)C2CC2)cc1=O observed_value=9.28
smiles_entry=COCCCc1cc(CN(C(=O)[C@H]2CNCC[C@@H]2c2ccn(C)c(=O)c2)C2CC2)cc(Br)c1C observed_value=8.62
smiles_entry=COCCCc1cc(CN(C(=O)[C@H]2CNCC[C@@H]2c2ccn(C)c(=O)c2)C2CC2)c2ccccc2c1 observed_value=8.85
smiles_entry=COCCCn1cc(CN(C(=O)[C@H]2CNCC[C@@H]2c2ccn(C)c(=O)c2)C2CC2)c2c(F)cccc21 observed_value=9.06
smiles_entry=CCn1ccc([C@H]2CCNC[C@@H]2C(=O)N(Cc2cc(CCCOC)cc(OCCOC)c2)C2CC2)cc1=O observed_value=6.34
smiles_entry=COCCCn1cc(CN(C(=O)[C@H]2CNCC[C@@H]2c2ccn(C)c(=O)c2)C2CC2)c2c(Br)cccc21 observed_value=9.24
smiles_entry=COCCNc1cc(Cl)c(Cl)c(CN(C(=O)[C@H]2CNCC[C@@H]2c2ccn(C)c(=O)c2)C2CC2)c1 observed_value=7.59
smiles_entry=CC(=O)NCCc1cc(Cl)c(Cl)c(CN(C(=O)[C@H]2CNCC[C@@H]2c2ccn(C)c(=O)c2)C2CC2)c1 observed_value=8.05
smiles_entry=COCCCc1cc(CN(C(=O)[C@H]2CNCC[C@@H]2c2ccn(C)c(=O)c2)C2CC2)c2ncccc2c1 observed_value=8.66
smiles_entry=COCCCc1cc(CN(C(=O)[C@H]2CNCC[C@@H]2c2ccn(C)c(=O)c2)C2CC2)cc(-c2ccccc2)c1 observed_value=7.09
smiles_entry=COCCc1cc(Cl)c(Cl)c(CN(C(=O)[C@H]2CNCC[C@@H]2c2ccn(C)c(=O)c2)C2CC2)c1 observed_value=8.66
smiles_entry=Cn1ccc([C@H]2CCNC[C@@H]2C(=O)N(Cc2cn(Cc3ccc(F)cc3)c3cccc(F)c23)C2CC2)cc1=O observed_value=9.32
smiles_entry=COCCCc1cc(C)c(C)c(CN(C(=O)[C@H]2CNCC[C@@H]2c2ccn(C)c(=O)c2)C2CC2)c1 observed_value=9.00
smiles_entry=Cn1ccc([C@H]2CCNC[C@@H]2C(=O)N(Cc2cn(Cc3ccccc3)c3cccc(F)c23)C2CC2)cc1=O observed_value=9.21
smiles_entry=Cn1ccc([C@H]2CCNC[C@@H]2C(=O)N(Cc2cc(CCCC#N)cc(Cl)c2Cl)C2CC2)cc1=O observed_value=8.00
smiles_entry=COCCCc1cc(CN(C(=O)[C@H]2CNCC[C@@H]2c2cc(=O)n(C)c3cc(Cl)ccc23)C2CC2)cc(OCCOC)c1 observed_value=8.10
smiles_entry=Cn1ccc([C@H]2CCNC[C@@H]2C(=O)N(Cc2cccc(Cl)c2Cl)C2CC2)cc1=O observed_value=7.38
smiles_entry=COCCCc1ccc(Cl)c(CN(C(=O)[C@H]2CNCC[C@@H]2c2ccn(C)c(=O)c2)C2CC2)c1 observed_value=7.60
smiles_entry=COCCCn1cc(CN(C(=O)[C@H]2CNCC[C@@H]2c2ccn(C)c(=O)c2)C2CC2)c2ccccc21 observed_value=8.28
smiles_entry=COCCCc1cc(CN(C(=O)[C@H]2CNCC[C@@H]2c2cc(=O)n(C)c3ccccc23)C2CC2)cc(OCCOC)c1 observed_value=7.41
smiles_entry=Cn1ccc([C@H]2CCNC[C@@H]2C(=O)N(Cc2cn(Cc3cccc(F)c3)c3cccc(F)c23)C2CC2)cc1=O observed_value=9.20
smiles_entry=COCCCc1cc(CN(C(=O)[C@H]2CNCC[C@@H]2c2cc(=O)n(C)c(C)c2C)C2CC2)cc(OCCOC)c1 observed_value=7.10
smiles_entry=COC(=O)NCCc1cc(Cl)c(Cl)c(CN(C(=O)[C@H]2CNCC[C@@H]2c2ccn(C)c(=O)c2)C2CC2)c1 observed_value=6.68
